Please respond with reported EC50 for every item in the list.
Molecular target: T1, human CD112R antigen protein huCD112R-His (Acro Biosysterm, PVG-H52H4) (human, UniProt Q6DKI7 41-171)
T1 construct: purchased; also called human antigen protein; not shown: His tag
T1 sequence (looked up): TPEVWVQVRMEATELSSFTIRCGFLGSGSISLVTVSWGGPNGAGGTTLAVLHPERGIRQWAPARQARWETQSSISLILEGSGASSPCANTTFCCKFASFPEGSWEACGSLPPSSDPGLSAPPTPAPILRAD
Assay: ELISA, huCD112R-His coated on plate
Express it in nM; write the number only.

Notebook: C45 (antibody, human IgG1, kappa, V domains shown) VH: QVHLQQSGPDLVKPGVSVKISCKASGYTFTDYYINWVKQRPGQGLEWIGWIFPGSGTTYYNEKFKGKATLTVDKSSSTAYMLLSSLTSEDSAVYFCARDGGLRGPFDYWGQGTTLTVSS VL: DIQMTQSPSSLSASLGGKVTITCKANQDINKYIAWYQYKPGKGPRLLIHYTSTLQPDIPSRFSGSGSGRDFSFSISNLEPEDIATYYCLQYDYLYTFGGGTKLEIKR , EC50 read as 0.059

Notebook: C111 (antibody, human IgG1, kappa, V domains shown) VH: QVQLQQSGPELARPGASVKLSCKASGYTLTSHGISWVKQRTGQGLEWIGEIYPGSESPYYSEKFKGKATLTADKSSNIAYMQLSSLTSEDSAVYFCARSDYSDYWAMDYWGQGTSVTVSS VL: DIVMTQSQKCMSTSVGDRVSITCKASQNVRSAVAWYQQKPGQSPKTLIYLASNRHTGVPDRFTGSGSGTDFTLTITNVQSEDLADYFCLQHWNYPWTFGGGTELEIKR , EC50 read as 0.036

Notebook: C146 (antibody, human IgG1, kappa, V domains shown) VH: EVQLQQSGPELVKPGSSVKISCEASGYTFADYNVDWVKQSHGKSLEWIGAINPNDGGTSYNQKFEGKATLTVDKSSTTVYMELRSLTSEDSAVYYCARWVNNDWYFDVWGTGTTVTVSS VL: DIVMTQSQKFMSTSVGDRVSITCKASQNVRSAVDWYQQKPGQSPKTLIHSASSRHTGVPDRFTGSGSGTDFTLTISNIQSEDLADYFCLQHWNYPYTFGGGTKLEVKR , EC50 read as 0.036

Notebook: C124 (antibody, human IgG1, kappa, V domains shown) VH: EVQLVESGGGLVKPGGSLKLSCAASGFTFSSFAMSWVRQTPAKRLESVATINNGGINTYYPDTVKGRFTVSRDNAKNTLYLQMSSLRSEDTAMYYCARHDDFLYYAMDYWGQGTSVTVSS VL: QIVLTQSPAIMSASPGEKVTMTCSASSSVSYMYWYQQKPGSSPRLLIYDTSNLASGVPVRFSGSGSGTSYSLTISRMEAEDAATYYCQQWTSYPLTFGAGTKLELKR , EC50 read as 0.033

Notebook: C63 (antibody, human IgG1, kappa, V domains shown) VH: EVMLVESGGGLVKPGGSLKLSCAASGFIFSSYIMSWVRQTPEKRLEWVATIRGGGGNTYYLDSVKGRFIISRDNAKNNLYLQMSSLRSEDTALYYCARHEDYEWYAMDNWGQGTSVTVSS VL: QIVLTQSPAIMSASPGEKVTLTCSARSSVSYMYWYQQKPGSSPKLLIYDTSNLASGVPVRFSGSGSGTSYSLTISRMEAEDAATYYCQQWSSYPLTFGAGTKLELKR , EC50 read as 0.054
